Every entry's value here was drawn from PubChem BioAssay AID1259423.

System: Aedes aegypti neuropeptide Y-like receptor 7 (NPYLR7)
Assay: agonists of mosquito NPYLR7 receptor, primary screen, cell-based, Aedes aegypti, calcium fluorescence, mosquito biting behavior (AID 1259423)
Settings: HEK293T NPYLR7/Galpha15, GCaMP6s calcium fluorescence; at 10 µM
About 410 (0.15%) of roughly 270,000 compounds were called active. No stated cut-off is given here; in the data, active means activation above about 40%; inactive means the rest, inconclusive results apart. The entries come from a sample that favours actives as a whole.
Give one outcome, nothing more. List: active, inactive

Name the outcome recorded for O=C(NC1COC2(CCCCC2)C1)c1ccco1 (centres undefined) in the assay.
inactive

Same lookup for `CC(C)OCCCNC(=O)c1ccc(-c2cccc(C(F)(F)F)c2)s1` , please.
inactive

Same read-out for `CCc1nc2c(OCC=C(C)C)cccn2c1N(C)C(=O)c1ccco1` ?
inactive

Entry `N#CC(=C(O)CSc1ccc2c(c1)OCCO2)c1nc2ccccc2[nH]1` please
inactive

Next molecule up: Cc1c(C(=O)N2CCCCC2CCc2ccc(O)cc2)oc2c(F)cccc12 (centres undefined)
inactive

Cool, now CN(c1ccccc1)c1nnc(C(O)c2cc(F)c(F)c(F)c2)s1 (centres undefined)
inactive

Also CCN(CC)C(=O)C1(C)CCN1C(=O)Cc1ccc(-c2ccccc2)cc1 (centres undefined) ?
inactive

# iterate: `Cc1nc(N)sc1C(=O)N/N=C1\CCn2cccc21`
inactive

Same for COc1cc(C(=O)N2CCOC(c3ccccc3)C2)cc(OC)c1C (centres undefined)
active

How about `Cc1c(C(=O)NCc2ccc(C#N)cc2)sc(=O)n1Cc1ccc(C(=O)N(C)C)cc1` ?
inactive

Next entry: O=C(NCC1CCCO1)c1cccc(Nc2c(Oc3cccc(Cl)c3)cnn(-c3ccccc3)c2=O)c1 (centres undefined)
inactive

Do the same for Cc1cc(S(=O)(=O)C(CNC(=O)CC(C)(C)C)c2cccs2)ccc1F (centres undefined) please
inactive

Also, COc1ccc(CN(Cc2nc(C(=O)O)co2)C(C)c2ccccc2)c(OC)c1 (centres undefined) please.
inactive

One more molecule: `COCCCN1COc2ccc3c(c2C1)O/C(=C\c1cccc(OC)c1OC)C3=O`
inactive

Lookup `N#C/C(=C/c1cn(-c2ccccc2)nc1-c1ccco1)c1nc2ccccc2c(=O)[nH]1`
inactive

Consider next the molecule O=C(c1ccc(-n2cnnn2)cc1)N1CCCC(N2CCCC2)C1 (centres undefined) in the same way.
inactive

Then this molecule: CC(C)COCC(O)CN(Cc1cccn1C)CC1CCCO1 (centres undefined)
active

Okay, and CCC(=O)Nc1cccc(OCC(=O)N2CCCC2c2nonc2C)c1 (centres undefined) ?
inactive

Thanks! And CC1CCN(C(=O)C(C)Nc2ccc3c(c2)OCO3)CC1 (centres undefined) ?
inactive

Please give the result for COc1ccc2cc(C3CN(C(=O)c4ccc[nH]4)CCO3)ccc2c1 (centres undefined) too.
inactive

Cool, now CC1Cc2c(NC(=O)CSCc3ccccc3)nn(C)c2NC1=O (centres undefined)
inactive

Same for `Cc1ccc(CNc2oc(-c3ccc(S(=O)(=O)N(C)Cc4ccccc4)cc3)nc2C#N)cc1`
inactive

Param item: `Cc1ccc(Sc2ncccc2C(=O)N2CCN(c3nccc(-c4cccc(C(F)(F)F)c4)n3)CC2)cc1`
inactive

Then `CCn1c(C2CCN(CCC3=C(C)CCCC3(C)C)CC2)nn(C)c1=O` ?
inactive

What do we get for `COc1cc(C=C2C=c3c(O)cccc3=C2O)cc(Cl)c1O` ?
active

Next molecule up: c1ccc2c(-c3noc4c3CN(CC3CCCO3)CC4)cccc2c1 (centres undefined)
inactive

And then `Cc1nn(C)cc1N1C(=O)c2cccc3c([N+](=O)[O-])ccc(c23)C1=O` , what is it?
inactive

Next molecule up: C/C=C\COC1CCCN(C(=O)COc2ccc(Cl)cc2)C1 (centres undefined)
inactive

Can you handle `CCCCN(C)C(=O)c1cnn(-c2ccccc2)c1` next?
inactive

# repeat for `O=S(=O)(Cc1ccc(F)cc1)NCc1ccccc1OC(F)F`
inactive

Can you handle `Clc1ccc(-c2noc3c2CN(CCn2cc(Cl)cn2)CC3)cc1` next?
active

Here is the next molecule: CN1CCOC(CCNC(=O)CCC(=O)N2CCCCCC2)C1 (centres undefined)
inactive

And the next one, O=C(Nc1cc(F)c(N2CCCC2)c(F)c1)C1Cc2ccccc2O1 (centres undefined) ?
inactive

Thanks! And `Cc1c(CN2CCn3cncc3C2)c(=O)n(-c2ccccc2)n1C` ?
inactive

Follow-up entry: CCC(CO)[n+]1c(C)cc(C=C2Sc3ccccc3N2CC)cc1C (centres undefined)
active

And the next one, CC1CN(c2ccc(/C=C(\C#N)c3nc4ccccc4[nH]3)o2)CC(C)O1 (centres undefined) ?
active

Further, for COCCN(CC(=O)N1CCc2sccc2C1c1ccccc1)C(=O)COCc1ccccc1 (centres undefined) ?
inactive

Again, but for `Cc1c(-c2ccccc2)c(=O)oc2c3c(ccc12)OCN(Cc1cccnc1)C3`
inactive

Try `COc1cc2c(cc1O)[C@@H](Cc1ccc(O)cc1)[N+](C)(C)CC2` next.
inactive
